FYI, the data here is from patent US5175166A.

Target: muscarinic receptors
Test: Binding to muscarinic receptors, competition with [3H]-QNB (rat brain membranes)
Conditions: 50 pM [3H]-QNB, rat brain membranes, pH 7.4, 2.0 hr room temperature; mean of three experiments
ASSAY READOUT: pIC50
// pIC50 here means minus log10 of the molar concentration (mol/L)

INSERT INTO results (compound, assay_readout, numeric_readout) VALUES
  ('COC(=O)C1CCC(N)=NC1.Cl (stereo not drawn) [Example 14, HCl]', 'pIC50', 5.14);

Continue with the compound presented below.
Qu. Supply measured pIC50 of CC(=O)OC1CN=C(C(F)(F)F)NC1.Cl (stereo not drawn) [Example 18, HCl] in your reply.
Ans. 5.06
